- TARGET_OR_TEST_SYSTEM: T1, huNABA-avi-his (hybrid protein N-A1-B3-A2: N and A1 domains of human BGP, B3 domain of human CEA, A2 domain … (human, biotinylated at the avi tag (in vivo, co-transfected biotin ligase)))
- T1 construct: also called NABA-avi-his reagent; biotinylated NABA
- T1 chain: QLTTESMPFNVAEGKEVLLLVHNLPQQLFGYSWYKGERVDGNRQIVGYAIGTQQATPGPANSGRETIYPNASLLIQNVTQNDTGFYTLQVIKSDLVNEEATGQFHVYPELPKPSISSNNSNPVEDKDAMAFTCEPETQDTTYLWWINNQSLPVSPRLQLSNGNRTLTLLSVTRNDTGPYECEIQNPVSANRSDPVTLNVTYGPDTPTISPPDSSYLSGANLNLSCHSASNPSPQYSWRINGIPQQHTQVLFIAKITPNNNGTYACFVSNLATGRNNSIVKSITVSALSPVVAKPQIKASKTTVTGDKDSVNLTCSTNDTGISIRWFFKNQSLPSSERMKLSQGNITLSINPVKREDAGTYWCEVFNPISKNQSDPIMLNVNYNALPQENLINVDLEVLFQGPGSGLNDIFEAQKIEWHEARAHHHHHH
- ASSAY_SUMMARY: Biacore on immobilized NABA-avi-his; Bivalent Affinity
pKd: −log10 of the molar value.
TEST_READOUT: pKd

binder="1C8 x 2F1 (bivalent) (antibody, V domains shown, bivalent form of the clone; copies: 2 + 2) VH: QVQLVQSGSELKKPGASVKVSCKASGYTFTEFGMNWVRQAPGQGLEWMGWINTKTGEATYVEEFKGRFVFSLDTSVSTAYLQISSLKAEDTAVYYCARWDFYHYVEAMDYWGQGTTVTVSS VL: DIQMTQSPSSLSASVGDRVTITCKASAAVGTYVAWYQQKPGKAPKLLIYSASYRKRGVPSRFSGSGSGTDFTLTISSLQPEDFATYYCHQYYTYPLFTFGQGTKLEIK" reported_measurement=9.18
binder="humanized PR1A3 antibody with heavy chain variable region CH7A and light chain variable region 2F1 (antibody, V domains shown, Measured in the bivalent form; also called CH7Ax2F1; parental antibody CH7A) VH: QVQLVQSGSELKKPGASVKVSCKASGYTFTEFGMNWVRQAPGQGLEWMGWINTKTGEATYVEEFKGRFVFSLDTSVSTAYLQISSLKAEDTAVYYCARWDFYDYVEAMDYWGQGTTVTVSS VL: DIQMTQSPSSLSASVGDRVTITCKASAAVGTYVAWYQQKPGKAPKLLIYSASYRKRGVPSRFSGSGSGTDFTLTISSLQPEDFATYYCHQYYTYPLFTFGQGTKLEIKR" reported_measurement=9.02
binder="humanized PR1A3 antibody comprising heavy chain variable region construct CH7A and light chain variable region construct CL1A (antibody, human IgG1, V domains shown, also called CH7A CL1A; CH7A, CL1A) VH: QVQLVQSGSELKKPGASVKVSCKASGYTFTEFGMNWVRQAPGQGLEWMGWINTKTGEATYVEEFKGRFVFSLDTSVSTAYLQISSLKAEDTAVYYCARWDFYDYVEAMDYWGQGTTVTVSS VL: DIQMTQSPSSLSASVGDRVTITCKASQNVGTNVAWYQQKPGKAPKLLIYSASYRYSGVPSRFSGSGSGTDFTLTISSLQPEDFATYYCHQYYTYPLFTFGQGTKLEIK" reported_measurement=8.70

Hello, the source for this data is patent US20230365711A1, in case you need it.
